Kindly supply the reported binding score values for the records listed here.
assayedSystem: T1, Bdf1 bromodomain 1 (GST-tagged, WT) (Saccharomyces cerevisiae (strain ATCC …, UniProt P35817))
T1 chain: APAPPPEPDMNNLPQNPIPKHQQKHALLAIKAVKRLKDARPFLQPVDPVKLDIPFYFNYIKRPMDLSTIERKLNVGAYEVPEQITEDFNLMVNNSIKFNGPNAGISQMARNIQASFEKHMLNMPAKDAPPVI
assayMethodText: histone peptide array probed with recombinant GST-bromodomain, signal normalised to myc peptide control
Primed or numbered codes have the meaning given here. No end group written: not given here. Me2s″ = symmetric dimethylarginine (Rme2s); Me2a = asymmetric dimethyl (on Arg); Me2s = symmetric dimethyl (on Arg)
Answers are plain numbers.

// known answers, use as guide
// binding score lookup, binder = ARTKQTARKSTGGKAPRKQ (A R T K Q T A R Kme3 S pT G G K A P R K Q) , result: 0

// binding score lookup, binder = RRKKKRRKKKRKRKKRK (R Rme2s K Kme1 Kac R Rme2a Kme2 K Kme3 R Kme1 Rme2s K Kac R K) [background 02] , result: 0.00538

Briefly, binding score measured for "AR(Me2a)TK(Me)QTAR(Me2s)K(Me)STGGKAPRKQ" : 0.0102

Value of binding score reported for the binder ARTKQTARKSTGGKAPRKQ (A Rme2a T Kme2 Q T A R Kme2 S T G G K A P R K Q) is 0

The recorded binding score for "ARTK(Ac)QTAR(Me2s″)K(Ac)STGGKAPRKQ" is 0.0672

// binding score lookup, binder = ARTKQTARKSTGGKAPRKQ (A Rme2s T Kac Q T A Rme2a Kac S T G G K A P R K Q) , result: 0.0545

Let's switch to this binder now.
# binding score of SGRGKGGKGLGKGGAKRHR (S G Rme2s G Kac G G K G L G K G G A K R H R) [H4 1-19] = 0
